- test.method.notes: NCI Yeast Anticancer Drug Screen. Data for the rad50 strain (AID 155);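 note: 0% = growth of vehicle-only cultures of the same strain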
- assay.conditions: S. cerevisiae rad50 strain growth inhibition; at 50.0 µM (retest, dose inferred, filed as 5.0); stronger effect = higher value
The panel holds about 79,000 compounds, 15% with a hit somewhere; the sample as a whole holds those more often.
Recorded growth inhibition values for a group of compounds are listed next.
State just the number; it will be interpreted in %.

Observe how each entry below is paired with its result.
compound	growth inhibition / %
CCNC(=O)NNc1ncnc2c1c(-c1ccc(Cl)cc1)cn2-c1ccc(C)cc1	98
Cc1cc(C)nc(NS(=O)(=O)c2ccc(Nc3nc(-c4cccc([N+](=O)[O-])c4)cs3)cc2)n1	99
CSC(=S)n1nc(-c2ccccc2)c(N=Nc2ccccc2[N+](=O)[O-])c1C	92
O=C(c1ccc(F)cc1)c1ccc(Cl)cc1Cl	98

# next compound below
Please look up its growth inhibition: O=C1CCC(Cc2ccc(Cl)cc2Cl)C(=O)N1 (stereo unspecified) 3
